Data origin, for the record: paper PMC9482650

biological target: FRMPD2_2, Q68DX3; experiment: holdup assay; parameters: key: below the threshold = too weak to quantify, mostly under pKd 3.1 to 4; settings: plain residues with an end cap or a label only (N-terminal biotin on a linker: ado-ado)
Sequence (Q68DX3 944-1038): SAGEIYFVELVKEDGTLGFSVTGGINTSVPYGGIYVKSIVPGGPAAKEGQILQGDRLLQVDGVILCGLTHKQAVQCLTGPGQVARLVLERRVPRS
Quick list: pKd per entry.
# print the numeric value only

So, LPHPHSTTRV [NLGN2, Q8NFZ4] ? Its pKd was 3.59

---
So, SAKVRTVTSV [RASL11B, Q9BPW5] ? Its pKd was 3.97
